Hey, just so you know, these numbers are from paper PMC8469978.

- TARGET UNDER TEST: M2+Gα16 (Homo sapiens, UniProt P08172)
- Construct: full-length receptor and Gα16 as separate chains, transiently co-transfected in CHO-K1 cells
- Sequence (P08172 whole entry): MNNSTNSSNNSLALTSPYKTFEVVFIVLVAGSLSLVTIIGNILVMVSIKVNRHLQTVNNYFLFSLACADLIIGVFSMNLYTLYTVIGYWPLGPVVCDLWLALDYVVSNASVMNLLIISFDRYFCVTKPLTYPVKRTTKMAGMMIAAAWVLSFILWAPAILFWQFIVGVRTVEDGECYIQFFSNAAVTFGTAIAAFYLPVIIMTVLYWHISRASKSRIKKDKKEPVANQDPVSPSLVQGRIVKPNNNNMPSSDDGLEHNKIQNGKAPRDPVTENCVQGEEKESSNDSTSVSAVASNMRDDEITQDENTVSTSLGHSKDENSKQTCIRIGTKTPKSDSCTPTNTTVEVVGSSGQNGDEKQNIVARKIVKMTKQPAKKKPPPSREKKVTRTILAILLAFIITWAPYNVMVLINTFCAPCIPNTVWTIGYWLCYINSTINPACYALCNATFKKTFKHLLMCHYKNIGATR
- Sequence (P30679 whole entry partner): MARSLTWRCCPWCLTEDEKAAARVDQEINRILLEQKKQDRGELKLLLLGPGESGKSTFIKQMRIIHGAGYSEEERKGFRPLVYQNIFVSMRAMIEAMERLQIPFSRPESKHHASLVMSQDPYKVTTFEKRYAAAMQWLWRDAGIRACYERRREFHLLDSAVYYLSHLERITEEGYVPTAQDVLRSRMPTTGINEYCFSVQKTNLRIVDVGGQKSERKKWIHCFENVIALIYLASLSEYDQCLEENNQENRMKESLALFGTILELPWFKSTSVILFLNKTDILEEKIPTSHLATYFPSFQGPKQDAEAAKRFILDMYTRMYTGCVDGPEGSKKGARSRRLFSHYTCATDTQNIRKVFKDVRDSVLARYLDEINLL
- EXPERIMENTAL PROTOCOL: inositol phosphate accumulation, CHO cells
ATTRIBUTE MEASURED: EC50

• O=C1CCCN1CC#CCN1CCCC1 = 295 nM
